# MEASUREMENT_PROTOCOL: NOVARTIS: Cytotoxicity against human hepatocellular carcinoma cell line (Huh7)
# Assay type: toxicity, cell-based, Huh-7
# CONDITION_INFO: Huh7 cells (hepatocellular carcinoma cell line)
This listing pairs molecules with measured CC50.
METRIC: CC50

{"MOLECULE": "Nc1cc(C(=O)Nc2ccc(C3=NCCN3)cc2)ccc1C(=O)Nc1ccc(C2=NCCN2)cc1", "EXPERIMENTAL_VALUE": "90.6 µM"}
{"MOLECULE": "CCOC(=O)NN=C1c2ccccc2-c2nc3nonc3nc21", "EXPERIMENTAL_VALUE": "> 10 µM"}
{"MOLECULE": "CCC(Sc1nc(C)cc(-c2ccccc2)n1)C(=O)Nc1cccc2ccccc12 (stereo not given)", "EXPERIMENTAL_VALUE": "> 10 µM"}
{"MOLECULE": "CCOC(=O)C1(CC2CCCCO2)CCN(Cc2cccc(C)n2)CC1 (stereo not given)", "EXPERIMENTAL_VALUE": "> 100 µM"}
{"MOLECULE": "COc1ccc(NC(=O)C2c3ccccc3C(=O)N(CC(C)C)C2c2cccs2)cc1OC (stereo not given)", "EXPERIMENTAL_VALUE": "> 100 µM"}
{"MOLECULE": "CN(CCCNc1ccnc2cc(Cl)ccc12)C(=O)C(C)(C)CCl", "EXPERIMENTAL_VALUE": "> 10 µM"}
{"MOLECULE": "Nc1nc(Cl)nc2ccccc12", "EXPERIMENTAL_VALUE": "> 10 µM"}
{"MOLECULE": "COC(=O)C1=C(C(=O)OC)SC(=C2C(=S)C(C)(C)Nc3cc(C)ccc32)S1", "EXPERIMENTAL_VALUE": "> 10 µM"}
{"MOLECULE": "COc1ccc(CN(C=O)/C=C2\\Sc3ccccc3C2=O)cc1OC", "EXPERIMENTAL_VALUE": "> 10 µM"}
{"MOLECULE": "COc1ccc(C2CC3=NC(C)=C(C(=O)OC(C)C)C(c4ccccc4Cl)C3=C(O)C2)cc1OC (stereo not given)", "EXPERIMENTAL_VALUE": "> 100 µM"}

These entries and their values trace back to ChEMBL document CHEMBL1156829.
